B1: CD69 (parent)
chain: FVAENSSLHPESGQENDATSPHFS

Variants of: B1
METHOD_SUMMARY: protein stability index of a GFP-peptide fusion (GPS, HEK-293T) (PSI 1-6); higher = more stable;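 also: lentivirally expressed fusions sorted by FACS into six bins by GFP to DsRed ratio, PSI derived from sequencing read proportions per bin multiplied by bin number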
ASSAY_CONTEXT: c terminus: a fixed tail appended
PROPERTY_LABEL: protein stability index

• FVAENSSLHPESGQENDGTSPHFS [A18G] = 3.03
• FVAENSSLHPESGQENCATSPHFS [D17C] = 2.31
• FVAENSSLHPEDGQENDATSPHFS [S12D] = 3.25
• FVAENSSLHPESGQENDATSAHFS [P21A] = 2.62
• YVAENSSLHPESGQENDATSPHFS [F1Y] = 3.64
• FVAENSSLHPESGSENDATSPHFS [Q14S] = 2.64
• FVAENSSLHPESGQENDADSPHFS [T19D] = 3.75
• FVAENSSLHPEFGQENDATSPHFS [S12F] = 2.39
• PVAENSSLHPESGQENDATSPHFS [F1P] = 5.51
• FVAENSSLHPESGQENDATSPHAS [F23A] = 3.55
• FVAENSSTHPESGQENDATSPHFS [L8T] = 3.64
• FVAENSSLHPEKGQENDATSPHFS [S12K] = 2.66
• FVSENSSLHPESGQENDATSPHFS [A3S] = 2.56
• FVAENSSLHPESGQEYDATSPHFS [N16Y] = 2.72
• FVAENSSLHPESGQENDARSPHFS [T19R] = 2.92
• FVAENSSLHPESGQPNDATSPHFS [E15P] = 2.32
• FVAEDSSLHPESGQENDATSPHFS [N5D] = 4.57
• FVAENSSLHPESGQENDHTSPHFS [A18H] = 2.45
• FVAENSSLHPTSGQENDATSPHFS [E11T] = 2.84
• FVAENSSLHPESGQENDATSPSFS [H22S] = 2.86
• FVAENSSLHPESGQENDSTSPHFS [A18S] = 2.91
• FVPENSSLHPESGQENDATSPHFS [A3P] = 2.41
• FVAENSSLHPESGYENDATSPHFS [Q14Y] = 2.4
• FVAENSSEHPESGQENDATSPHFS [L8E] = 3.86
• FVAENSSGHPESGQENDATSPHFS [L8G] = 3.78
• FVAENSSLHPESGQESDATSPHFS [N16S] = 3.19
• FDAENSSLHPESGQENDATSPHFS [V2D] = 5.18
• FVAELSSLHPESGQENDATSPHFS [N5L] = 2.95
• FVAENSSLHPESLQENDATSPHFS [G13L] = 2.49
• FVAENSSLHPESGQENDATYPHFS [S20Y] = 2.11
• FVAENSSLHLESGQENDATSPHFS [P10L] = 2.9
• FVAENSSLHPESGQEADATSPHFS [N16A] = 2.51
• FVAANSSLHPESGQENDATSPHFS [E4A] = 2.85
• FVAENSSLHPESGQENDAQSPHFS [T19Q] = 3.16
• FVAENSSLHGESGQENDATSPHFS [P10G] = 3.29
• FVAENSSLHPESGQENDVTSPHFS [A18V] = 3.22
• FVAENSSLHPESGQENDPTSPHFS [A18P] = 3.19
• FVAENSSLHTESGQENDATSPHFS [P10T] = 3.13
• FVAENSSLHPESGQEHDATSPHFS [N16H] = 3
• FVAENSSLHPESGQECDATSPHFS [N16C] = 2.73
• FVAENSSLHPESGQENDATDPHFS [S20D] = 4.01
• FVAENSSLHPESGQENDAPSPHFS [T19P] = 2.84
• FVRENSSLHPESGQENDATSPHFS [A3R] = 2.88
• FVAENSSLHPESGQENPATSPHFS [D17P] = 2.76
• FVAENSSLHPESGQENDATSYHFS [P21Y] = 2.62
• FVAENDSLHPESGQENDATSPHFS [S6D] = 4.33
